Give measured IC50 for each item. Keep answers brief.
subjectOfTest: IRAK4 (Homo sapiens (Human), UniProt Q9NWZ3)
Sequence (Q9NWZ3 whole entry, species assumed): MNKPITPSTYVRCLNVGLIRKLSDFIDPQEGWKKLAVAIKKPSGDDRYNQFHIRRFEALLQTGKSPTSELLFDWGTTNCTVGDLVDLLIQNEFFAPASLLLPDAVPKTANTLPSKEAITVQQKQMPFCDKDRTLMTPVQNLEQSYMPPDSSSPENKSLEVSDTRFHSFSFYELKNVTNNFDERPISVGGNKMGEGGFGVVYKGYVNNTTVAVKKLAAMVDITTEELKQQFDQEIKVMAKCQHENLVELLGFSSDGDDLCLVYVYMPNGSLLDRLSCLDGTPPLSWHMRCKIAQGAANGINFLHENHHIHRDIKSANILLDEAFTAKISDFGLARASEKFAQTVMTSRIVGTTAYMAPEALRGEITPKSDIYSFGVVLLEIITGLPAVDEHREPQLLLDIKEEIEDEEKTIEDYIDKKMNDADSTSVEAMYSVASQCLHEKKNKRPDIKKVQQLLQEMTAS
assayNotes: IRAK4 Inhibition Assay
Type: biochemical
conditionDetails: IRAK4 Inhibition Assay; ATP 500 μM; read-out: IRAK4 IC50
Experimental: The assays were performed in U-bottom 384-well plates. […] The reaction was initiated by the combination of IRAK4 with substrates and test compounds. The reaction mixture was incubated at room temperature for 60 min. and terminated by adding 45 μL of 35 mM EDTA to each sample. The reaction mixture was analyzed on the Caliper LABCHIP® 3000 (Caliper, Hopkinton, Mass.) by electrophoretic separation of the fluorescent substrate and phosphorylated product.
Please reply with the bare figure in nM and do not write the unit itself.

Query :: Which IC50 value is on record for C[C@H](CF)Nc1cc(-n2ncc3cc(C#N)cnc32)ncc1C(=O)NC[C@@H](F)C(C)(C)O [Example 114] ?
Result :: 4.6

Query :: Which IC50 value is on record for CC(C)Nc1cc(-n2ncc3cc(C#N)cnc32)ncc1C(=O)NCCc1cccnc1 [Example 276] ?
Result :: 4.7

Query :: Which IC50 value is on record for CC(C)Nc1cc(-n2ncc3cc(C#N)cnc32)ncc1C(=O)NCCc1ccncc1 [Example 259] ?
Result :: 2.5

* * *

subjectOfTest: IRAK4 (Homo sapiens (Human), UniProt Q9NWZ3)
assayNotes: IRAK4 Inhibition Assay
Type: biochemical
conditionDetails: IRAK4 Inhibition Assay; ATP 500 μM; read-out: IRAK4 IC50
experimentalReadout: IC50 (nM)
Please reply with the bare figure in nM and do not write the unit itself.

Query :: Form field: IC50 recorded for CCCn1cc(Nc2cc(-n3ncc4cc(Cl)cnc43)ncc2C(=O)NC[C@@H](F)C(C)(C)O)cn1 with IRAK4 (Homo sapiens (Human), UniProt Q9NWZ3) (enter value)
Result :: 2.5

Query :: Form field: IC50 recorded for CC(C)(O)[C@H](F)CNC(=O)c1cnc(-n2ncc3cc(C#N)cnc32)cc1NC1CCCOC1 (single isomer, unassigned) [Example 143] with IRAK4 (Homo sapiens (Human), UniProt Q9NWZ3) (enter value)
Result :: 6.5

Query :: Form field: IC50 recorded for CNC(=O)C[C@H]1CC[C@H](NC(=O)c2cnc(-n3ncc4cc(C#N)cnc43)cc2NC(C)C)CC1 with IRAK4 (Homo sapiens (Human), UniProt Q9NWZ3) (enter value)
Result :: 19.5

Query :: Form field: IC50 recorded for CNC(=O)[C@H]1CC[C@H](NC(=O)c2cnc(-n3ccc4cc(C#N)cnc43)cc2NCC(C)(C)O)CC1 with IRAK4 (Homo sapiens (Human), UniProt Q9NWZ3) (enter value)
Result :: 8.4

Query :: Form field: IC50 recorded for CC(C)(F)Cn1cc(Nc2cc(-n3ncc4cc(C#N)cnc43)ncc2C(=O)NC[C@@H](F)C(C)(C)O)cn1 with IRAK4 (Homo sapiens (Human), UniProt Q9NWZ3) (enter value)
Result :: 2.4

Query :: Form field: IC50 recorded for CC(C)Nc1cc(-n2ncc3cc(C#N)cnc32)ncc1C(=O)NCCCN1CCOCC1 with IRAK4 (Homo sapiens (Human), UniProt Q9NWZ3) (enter value)
Result :: 16.3

Query :: Form field: IC50 recorded for C[C@@H](CO)Nc1cc(-n2ncc3cc(C#N)cnc32)ncc1C(=O)NCCC1CC1 with IRAK4 (Homo sapiens (Human), UniProt Q9NWZ3) (enter value)
Result :: 7.9

Query :: Form field: IC50 recorded for CC(C)(O)[C@H](F)CNC(=O)c1cnc(-n2ccc3cc(C#N)cnc32)cc1Nc1cccc(CO)c1 with IRAK4 (Homo sapiens (Human), UniProt Q9NWZ3) (enter value)
Result :: 1.5

Query :: Form field: IC50 recorded for CC(C)(O)[C@H](F)CNC(=O)c1cnc(-n2ccc3cc(Cl)cnc32)cc1NC1CCOCC1 with IRAK4 (Homo sapiens (Human), UniProt Q9NWZ3) (enter value)
Result :: 1.9

Query :: Form field: IC50 recorded for CC(C)Nc1cc(-n2ccc3cc(C#N)cnc32)ncc1C(=O)N[C@@H]1CC=C(c2ccncc2)CC1 with IRAK4 (Homo sapiens (Human), UniProt Q9NWZ3) (enter value)
Result :: 5.5

Query :: Form field: IC50 recorded for CC(C)Nc1cc(-n2ncc3cnc(NC[C@@H](F)C(C)(C)O)nc32)ncc1C(=O)NC[C@@H](F)C(C)(C)O with IRAK4 (Homo sapiens (Human), UniProt Q9NWZ3) (enter value)
Result :: 18.5

Query :: Form field: IC50 recorded for CC(C)Nc1cc(-n2ncc3cc(C#N)cnc32)ncc1C(=O)NCCC1CC1 with IRAK4 (Homo sapiens (Human), UniProt Q9NWZ3) (enter value)
Result :: 4.1

Query :: Form field: IC50 recorded for CC(C)n1cc(Nc2cc(-n3cnc4cc(Cl)cnc43)ncc2C(=O)NC[C@@H](F)C(C)(C)O)cn1 with IRAK4 (Homo sapiens (Human), UniProt Q9NWZ3) (enter value)
Result :: 4.3

Query :: Form field: IC50 recorded for CC(C)Nc1cc(-n2ncc3cc(C#N)cnc32)ncc1C(=O)Nc1ccc(N2CCNCC2)nc1 with IRAK4 (Homo sapiens (Human), UniProt Q9NWZ3) (enter value)
Result :: 5.3

Query :: Form field: IC50 recorded for CCCn1cc(Nc2cc(-n3ncc4cc(C#N)cnc43)ncc2C(=O)NC[C@@H](F)C(C)(C)O)cn1 with IRAK4 (Homo sapiens (Human), UniProt Q9NWZ3) (enter value)
Result :: 2.9

Query :: Form field: IC50 recorded for CC(=O)OC(C)(C)C(=O)NCCNC(=O)c1cnc(-n2ccc3cc(C#N)cnc32)cc1NC(C)C with IRAK4 (Homo sapiens (Human), UniProt Q9NWZ3) (enter value)
Result :: 6.7

Query :: Form field: IC50 recorded for CC(C)Nc1cc(-n2ccc3cnc(NCCO)nc32)ncc1C(=O)NC[C@@H](F)C(C)(C)O with IRAK4 (Homo sapiens (Human), UniProt Q9NWZ3) (enter value)
Result :: 1.7

Query :: Form field: IC50 recorded for Cn1nnnc1-c1ccc(Nc2cc(-n3ccc4cc(C#N)cnc43)ncc2C(=O)NC[C@@H](F)C(C)(C)O)cc1 with IRAK4 (Homo sapiens (Human), UniProt Q9NWZ3) (enter value)
Result :: 1.3

Query :: Form field: IC50 recorded for CC(C)(O)CCNC(=O)c1cnc(-n2ncc3cc(C#N)cnc32)cc1NC1CCOCC1 with IRAK4 (Homo sapiens (Human), UniProt Q9NWZ3) (enter value)
Result :: 14.8

Query :: Form field: IC50 recorded for CNC(=O)[C@H]1CC[C@H](NC(=O)c2cnc(-n3ccc4cc(C#N)ccc43)cc2NC(C)C)CC1 with IRAK4 (Homo sapiens (Human), UniProt Q9NWZ3) (enter value)
Result :: 11.6

Query :: Form field: IC50 recorded for CC(C)Nc1cc(-n2ccc3cc(C#N)cnc32)ncc1C(=O)NC[C@@H](F)C(C)(C)O with IRAK4 (Homo sapiens (Human), UniProt Q9NWZ3) (enter value)
Result :: 7.6

Query :: Form field: IC50 recorded for CC(C)Nc1cc(-n2ncc3cc(C#N)cnc32)ncc1C(=O)Nc1cnn(C2CCOCC2)c1 with IRAK4 (Homo sapiens (Human), UniProt Q9NWZ3) (enter value)
Result :: 15.9

Query :: Form field: IC50 recorded for CC(C)(O)c1cccc(Nc2cc(-n3ccc4cc(C#N)cnc43)ncc2C(=O)NC[C@@H](F)C(C)(C)O)c1 with IRAK4 (Homo sapiens (Human), UniProt Q9NWZ3) (enter value)
Result :: 1.6

Query :: Form field: IC50 recorded for CC(C)(O)[C@H](F)CNC(=O)c1cnc(-n2ccc3cc(Cl)cnc32)cc1NC1CC1 with IRAK4 (Homo sapiens (Human), UniProt Q9NWZ3) (enter value)
Result :: 5.3

* * *

subjectOfTest: UniProt Q9NWZ3
assayNotes: IRAK4 Inhibition Assay
Type: biochemical
conditionDetails: IRAK4 Inhibition Assay; ATP 500 μM; read-out: IRAK4 IC50
Give measured IC50 for each item. Keep answers brief.

Query :: Which IC50 value is on record for CC(C)Nc1cc(-n2ncc3cc(C#N)cnc32)ncc1C(=O)NCCN1CCS(=O)(=O)CC1 ?
Result :: 8.1 nM

Query :: Which IC50 value is on record for CC(C)Nc1cc(-n2ncc3cc(C#N)c(N)nc32)ncc1C(=O)NC[C@@H](F)C(C)(C)F ?
Result :: 1.9 nM

Query :: Which IC50 value is on record for CC(C)Nc1cc(-n2ncc3cc(C#N)c(N)nc32)ncc1C(=O)NC1(C#N)CC1 ?
Result :: 6 nM

Query :: Which IC50 value is on record for CNC(=O)c1cccc(Nc2cc(-n3ccc4cc(C#N)cnc43)ncc2C(=O)NC[C@@H](F)C(C)(C)O)c1 ?
Result :: 3.6 nM

Query :: Which IC50 value is on record for CC(C)Nc1cc(-n2ncc3cc(Cl)cnc32)ncc1C(=O)NC[C@@H](F)C(C)(C)F ?
Result :: 4.3 nM

Query :: Which IC50 value is on record for CC(C)(O)[C@H](F)CNC(=O)c1cnc(-n2cnc3cc(C#N)cnc32)cc1NC1CCC1 ?
Result :: 4.5 nM

Query :: Which IC50 value is on record for Cc1cnc2c(cnn2-c2cc(NC(C)C)c(C(=O)N[C@H]3CC[C@H](C(C)(C)O)CC3)cn2)c1 ?
Result :: 13.6 nM

Query :: Which IC50 value is on record for CC(Nc1cc(-n2ncc3cc(C#N)c(N)nc32)ncc1C(=O)NC[C@@H](F)C(C)(C)O)C(F)(F)F (stereo partly drawn) ?
Result :: 2.4 nM

Query :: Which IC50 value is on record for CC(C)Nc1cc(-n2ncc3cncnc32)ncc1C(=O)NC[C@@H](F)C(C)(C)O ?
Result :: 6.2 nM
